- Target System: T1, cynomolgus monkey CCR8 expressed on cells (cynomolgus monkey, UniProt G7NYJ2 1-355)
- T1 construct: whole, on cells; also called cyno CCR8; CyCCR8
- T1 sequence (G7NYJ2 entry or part of it): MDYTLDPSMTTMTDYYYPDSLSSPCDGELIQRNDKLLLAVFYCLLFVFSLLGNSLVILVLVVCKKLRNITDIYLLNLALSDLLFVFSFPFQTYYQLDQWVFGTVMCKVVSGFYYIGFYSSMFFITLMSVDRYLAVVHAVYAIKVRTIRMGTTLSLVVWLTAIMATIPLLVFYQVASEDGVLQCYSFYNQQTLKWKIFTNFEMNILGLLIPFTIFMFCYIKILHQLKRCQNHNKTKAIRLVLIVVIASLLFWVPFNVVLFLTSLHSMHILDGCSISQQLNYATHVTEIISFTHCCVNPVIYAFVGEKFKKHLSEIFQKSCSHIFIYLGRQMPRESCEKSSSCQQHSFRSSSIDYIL
- Protocol Details: on-cell affinity, flow cytometry on 293T cells expressing cyno CCR8
Value Type: Kd (nM)

Binder	Value Type	Measurement
anti-CCR8-2-8 (antibody, V domains shown, Human IgG) VH: EVQLVESGGGLVQPGRSLRLSCAASGFTFDDYAMHWVRQAPGKGLEWVSGISWNSGSIGYADSVKGRFTISRDNSKNSLYLQMNSLRAEDTALYYCARGRRSYRDSLRFDYWGQGTLVTVSS VL: QSVLTQPPSVSGAPGQRVTISCTGSGSNIGNNYVSWYQQLPGTAPKMLIYDNTRRPSGIPDRFSGSKSDTSATLGITGLQTGDEADYYCGAWDSSLRMWVFGGGTKLTVL	Kd	2.5
anti-CCR8-2-6 (antibody, V domains shown, Human IgG) VH: EVQLVESGGGLVQPGRSLRLSCAASGFTFDDYAMHWVRQAPGKGLEWVSGISWNSGSIGYADSVKGRFTISRDNSKNSLYLQMNSLRAEDTALYYCARGRVSYRESLRFDYWGQGTLVT VL: QSVLTQPPSVSAAPGQKVTISCSGSSSNIGNNYVSWYQQLPGTAPKLLIYDNNKRPSGIPDRFSGSKSGTSATLGITGLQTGDEADYYCGTWDSSLSAWVFGGGTKLT	Kd	4.5
anti-CCR8-2-9 (antibody, V domains shown, Human IgG) VH: EVQLVESGGGLVQPGRSLRLSCAASGFTFDDYAMHWVRQAPGKGLEWVSGISWNSGSIGYADSVKGRFTISRDNSKNSLYLQMNSLRAEDTALYYCARGRKSYRDSLRFDYWGQGTLVTVSS VL: QSVLTQPPSVSGAPGQRVTISCTGSGSNIGNNYVSWYQQLPGTAPKMLIYDNTRRPSGIPDRFSGSKSDTSATLGITGLQTGDEADYYCGAWDSSLRMWVFGGGTKLTVL	Kd	3.2
anti-CCR8-2-3 (antibody, V domains shown, Human IgG from a mammalian expression vector in CHO cells; also called heavy chain H23499) VH: EVQLVESGGGLVQPGRSLRLSCAASGFTFDDYAMHWVRQAPGKGLEWVSGISWNSGSIGYADSVKGRFTISRDNSKNSLYLQMNSLRAEDTALYYCARGRKSYRDSLRFDYWGQGTLVTVSS VL: QSVLTQPPSVSAAPGQKVTISCSGSSSNIGNNYVSWYQQLPGTAPKLLIYDNNKRPSGIPDRFSGSKSGTSATLGITGLQTGDEADYYCGTWDSSLSAWVFGGGTKLT	Kd	3.9
anti-CCR8-2-7 (antibody, V domains shown, Human IgG) VH: EVQLVESGGGLVQPGRSLRLSCAASGFTFDDYAMHWVRQAPGKGLEWVSGISWNSGSIGYADSVKGRFTISRDNSKNSLYLQMNSLRAEDTALYYCARGRDSYRKSLRFDYWGQGTLVTVSS VL: QSVLTQPPSVSGAPGQRVTISCTGSGSNIGNNYVSWYQQLPGTAPKMLIYDNTRRPSGIPDRFSGSKSDTSATLGITGLQTGDEADYYCGAWDSSLRMWVFGGGTKLTVL	Kd	3.5
anti-CCR8-2-10 (antibody, V domains shown, Human IgG) VH: EVQLVESGGGLVQPGRSLRLSCAASGFTFDDYAMHWVRQAPGKGLEWVSGISWNSGSIGYADSVKGRFTISRDNSKNSLYLQMNSLRAEDTALYYCARGRKSYRDSLRFDYWGQGTLVTVSS VL: QSVLTQPPSVSAAPGQKVTISCSGTSSNIGKNFVSWYQQLPGTAPKLLIYDDNKRPSGIPDRFSGSKSATSATLGITGLQTGDGADYYCGTWDSSLSAWVFGGGTKLTVL	Kd	3.9
